assay: Hydrolisis rate of prodrug in whole rat blood (Franz-type cell, phenytoin measured by HPLC); assay type: in vitro ADME; conditions: rat, whole blood, whole rat blood, 37 °C, prodrug 40 µg/ml, time 1.5 min, replicate 1; read-out: % HYDROLISIS IN WHOLE BLOOD
Counter-ions that a name gives are not always drawn.
ATTRIBUTE MEASURED: metabolised at 0.025 h

Input line: GET /values?readout=metabolised at 0.025 h&item= CN1CCN(CC(=O)OCN2C(=O)NC(c3ccccc3)(c3ccccc3)C2=O)CC1 [IX, dihydrochloride]
Output line: 95.8%

---

assay: Hydrolisis rate of prodrug in whole rat blood (Franz-type cell, phenytoin measured by HPLC); assay type: in vitro ADME; conditions: rat, whole blood, whole rat blood, 37 °C, time 147.00 min, replicate 2; read-out: % HYDROLISIS IN WHOLE BLOOD
ATTRIBUTE MEASURED: metabolised at 2.45 h (%)
Express your answer in %, writing the number without its unit.

Input line: Look at this compound and give its reported metabolised at 2.45 h. O=C1NC(c2ccccc2)(c2ccccc2)C(=O)N1COP(=O)(O)O [XI]
Output line: 81.7

---

assay: Hydrolisis rate of prodrug in whole rat blood (Franz-type cell, phenytoin measured by HPLC); format: in vitro ADME; conditions: rat, whole blood, whole rat blood, 37 °C, time 15.00 min, mean of replicates; read-out: % HYDROLISIS IN WHOLE BLOOD, m ± s.d.
ATTRIBUTE MEASURED: metabolised at 0.25 h (%)
Unit % implied. Number only.

Input line: Bench note: what metabolised at 0.25 h did O=C1NC(c2ccccc2)(c2ccccc2)C(=O)N1COP(=O)(O)O [XI] show?
Output line: 59.6

---

experiment: Hydrolisis rate of prodrug in whole rat blood (Franz-type cell, phenytoin measured by HPLC); type: in vitro ADME; settings: rat, whole blood, whole rat blood, 37 °C, time 15.00 min, replicate 1; read-out: % HYDROLISIS IN WHOLE BLOOD
ATTRIBUTE MEASURED: metabolised at 0.25 h

Input line: # input compound: O=C1NC(c2ccccc2)(c2ccccc2)C(=O)N1COP(=O)(O)O ; wanted: its metabolised at 0.25 h
Output line: 38.9%

---

assay: Hydrolisis rate of prodrug in whole rat blood (Franz-type cell, phenytoin measured by HPLC); type: in vitro ADME; details: rat, whole blood, whole rat blood, 37 °C, time 7.00 min, replicate 3; read-out: % HYDROLISIS IN WHOLE BLOOD
ATTRIBUTE MEASURED: metabolised at 7 min (%)
State just the number; it will be interpreted in %.

Input line: State the recorded metabolised at 7 min for this entry: O=C1NC(c2ccccc2)(c2ccccc2)C(=O)N1COP(=O)(O)O
Output line: 46

---

assay: Hydrolisis rate of prodrug in whole rat blood (Franz-type cell, phenytoin measured by HPLC); assay type: in vitro ADME; conditions: rat, whole blood, whole rat blood, 37 °C, time 60.00 min, replicate 2; read-out: % HYDROLISIS IN WHOLE BLOOD
ATTRIBUTE MEASURED: metabolised at 1 h (%)
Quick note: give the figure in %, leave out the unit.

Input line: State the recorded metabolised at 1 h for this entry: O=C1NC(c2ccccc2)(c2ccccc2)C(=O)N1COP(=O)(O)O
Output line: 81

---

test: Hydrolisis rate of prodrug in whole rat blood (Franz-type cell, phenytoin measured by HPLC); format: in vitro ADME; conditions: rat, whole blood, whole rat blood, 37 °C, time 60.00 min, replicate 1; read-out: % HYDROLISIS IN WHOLE BLOOD
ATTRIBUTE MEASURED: metabolised at 1 h (%)
Number in %, nothing else.

Input line: # input compound: O=C1NC(c2ccccc2)(c2ccccc2)C(=O)N1COP(=O)(O)O [XI] ; wanted: its metabolised at 1 h
Output line: 74.5

---

assay: Hydrolisis rate of prodrug in whole rat blood (Franz-type cell, phenytoin measured by HPLC); type: in vitro ADME; details: rat, whole blood, whole rat blood, 37 °C, time 15.00 min, replicate 2; read-out: % HYDROLISIS IN WHOLE BLOOD
ATTRIBUTE MEASURED: metabolised at 0.25 h
Answer as a quantity: numeral, then unit.

Input line: # metabolised at 0.25 h lookup, item O=C1NC(c2ccccc2)(c2ccccc2)C(=O)N1COP(=O)(O)O
Output line: 46.1%

---

assay: Hydrolisis rate of prodrug in whole rat blood (Franz-type cell, phenytoin measured by HPLC); format: in vitro ADME; settings: rat, whole blood, whole rat blood, 37 °C, time 189.00 min, replicate 2; read-out: % HYDROLISIS IN WHOLE BLOOD
ATTRIBUTE MEASURED: metabolised at 3.15 h (%)
Please give a number only; it is taken to be in %.

Input line: Value lookup for metabolised at 3.15 h; key = O=C1NC(c2ccccc2)(c2ccccc2)C(=O)N1COP(=O)(O)O
Output line: 97.7

---

test: Hydrolisis rate of prodrug in whole rat blood (Franz-type cell, phenytoin measured by HPLC); assay type: in vitro ADME; conditions: rat, whole blood, whole rat blood, 37 °C, prodrug 40 µg/ml, time 16.0 min, mean of replicates; read-out: % HYDROLISIS IN WHOLE BLOOD, m ± s.d.
Counter-ions that a name gives are not always drawn.
ATTRIBUTE MEASURED: metabolised at 16 min (%)
Express the result in % but write the number alone.

Input line: Returns the measured metabolised at 16 min for the input compound. Input: CN1CCN(CC(=O)OCN2C(=O)NC(c3ccccc3)(c3ccccc3)C2=O)CC1 [IX, dihydrochloride]
Output line: 115

---

assay: Hydrolisis rate of prodrug in whole rat blood (Franz-type cell, phenytoin measured by HPLC); type: in vitro ADME; conditions: rat, whole blood, whole rat blood, 37 °C, time 2.00 min, replicate 3; read-out: % HYDROLISIS IN WHOLE BLOOD
ATTRIBUTE MEASURED: metabolised at 2 min (%)
Answer format: numeric, % implied, no suffix.

Input line: I would be grateful if you could share the reported metabolised at 2 min for O=C1NC(c2ccccc2)(c2ccccc2)C(=O)N1COP(=O)(O)O .
Output line: 24

---

assay: Hydrolisis rate of prodrug in whole rat blood (Franz-type cell, phenytoin measured by HPLC); assay type: in vitro ADME; conditions: rat, whole blood, whole rat blood, 37 °C, prodrug 40 µg/ml, time 5.0 min, replicate 2; read-out: % HYDROLISIS IN WHOLE BLOOD
Where a name gives a salt, the structure may show the parent alone.
ATTRIBUTE MEASURED: metabolised at 5 min (%)
Write down the numeric answer in % and omit the unit.

Input line: Look up metabolised at 5 min for this compound: CN1CCN(CC(=O)OCN2C(=O)NC(c3ccccc3)(c3ccccc3)C2=O)CC1 [IX, dihydrochloride]
Output line: 117

---

assay: Hydrolisis rate of prodrug in whole rat blood (Franz-type cell, phenytoin measured by HPLC); assay type: in vitro ADME; conditions: rat, whole blood, whole rat blood, 37 °C, prodrug 40 µg/ml, time 16.0 min, replicate 3; read-out: % HYDROLISIS IN WHOLE BLOOD
Counter-ions that a name gives are not always drawn.
ATTRIBUTE MEASURED: metabolised at 16 min

Input line: Recorded metabolised at 16 min for CN1CCN(CC(=O)OCN2C(=O)NC(c3ccccc3)(c3ccccc3)C2=O)CC1 [IX, dihydrochloride] , please?
Output line: 110%

---

experiment: Hydrolisis rate of prodrug in whole rat blood (Franz-type cell, phenytoin measured by HPLC); format: in vitro ADME; settings: rat, whole blood, whole rat blood, 37 °C, time 147.00 min, replicate 1; read-out: % HYDROLISIS IN WHOLE BLOOD
ATTRIBUTE MEASURED: metabolised at 2.45 h (%)
The figure you give is taken to be in %; do not add the unit.

Input line: Please report the recorded metabolised at 2.45 h for O=C1NC(c2ccccc2)(c2ccccc2)C(=O)N1COP(=O)(O)O .
Output line: 81

---

test: Hydrolisis rate of prodrug in whole rat blood (Franz-type cell, phenytoin measured by HPLC); assay type: in vitro ADME; conditions: rat, whole blood, whole rat blood, 37 °C, time 15.00 min, replicate 3; read-out: % HYDROLISIS IN WHOLE BLOOD
ATTRIBUTE MEASURED: metabolised at 0.25 h (%)
Answer with a number only, understood to be in %.

Input line: Requested field: metabolised at 0.25 h. Item: O=C1NC(c2ccccc2)(c2ccccc2)C(=O)N1COP(=O)(O)O [XI]
Output line: 93.8

---

assay: Hydrolisis rate of prodrug in whole rat blood (Franz-type cell, phenytoin measured by HPLC); type: in vitro ADME; conditions: rat, whole blood, whole rat blood, 37 °C, prodrug 40 µg/ml, time 5.0 min, replicate 3; read-out: % HYDROLISIS IN WHOLE BLOOD
Where a name gives a salt, the structure may show the parent alone.
ATTRIBUTE MEASURED: metabolised at 5 min (%)
Kindly provide the numeric value in % only, without the unit symbol.

Input line: Can you look up the measured metabolised at 5 min of CN1CCN(CC(=O)OCN2C(=O)NC(c3ccccc3)(c3ccccc3)C2=O)CC1 [IX, dihydrochloride] for me?
Output line: 105
